B1: CPEB3 Ribozyme (parent)
chain: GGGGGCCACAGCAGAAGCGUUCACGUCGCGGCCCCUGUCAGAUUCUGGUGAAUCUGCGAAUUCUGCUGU

variants of: B1; assay: self-cleavage, relative activity (ratio to wild type); higher = more cleavage; co-transcriptional
# self-cleavage >= 0.2 gives YES, anything below gives NO

Task item: Decide: self-cleavage of C34G G68U >= 0.2?
Reply: YES

Task item: Could you tell me if the measured self-cleavage of C18U C35G reaches 0.2 or more?
Reply: YES

Task item: Could you tell me if the measured self-cleavage of C6U G47A reaches 0.2 or more?
Reply: YES

Task item: Does the reported self-cleavage for G48U G56C fall at or above the 0.2 mark?
Reply: YES

Task item: Would you say A51G U64C shows self-cleavage at minimum 0.2?
Reply: YES

Task item: Please check the record C7A A60U and state if its self-cleavage is at or above 0.2.
Reply: YES

Task item: Answer whether self-cleavage of G50C G56A is greater than or equal to 0.2.
Reply: YES

Task item: Item C7U U44C with self-cleavage of 0.2 or above?
Reply: YES

Task item: Form field: self-cleavage at least 0.2? Entry: G11U C12U
Reply: YES

Task item: self-cleavage >= 0.2 for C18U G25U ?
Reply: NO

Task item: Item C29U G37C with self-cleavage of 0.2 or above?
Reply: NO

Task item: Exam item: decide whether the reported self-cleavage for C18U A42C is at least 0.2.
Reply: YES

Task item: # check: self-cleavage of G47U U55A is greater than or equal to 0.2
Reply: YES

Task item: Please tell me: is the variant G30U A60C at or over 0.2 in terms of self-cleavage?
Reply: NO

Task item: Does the reported self-cleavage for A40G U43G fall at or above the 0.2 mark?
Reply: YES

Task item: Has A51U A52C a recorded self-cleavage greater than or equal to 0.2?
Reply: YES

Task item: self-cleavage >= 0.2 for U21A G65C ?
Reply: YES

Task item: Entry G19C C66G : is its self-cleavage no less than 0.2?
Reply: NO

Task item: Could you tell me if the measured self-cleavage of U20G C24U reaches 0.2 or more?
Reply: NO

Task item: Reported self-cleavage at or above 0.2? G11U A59G
Reply: YES

Task item: Entry C32G G50C : is its self-cleavage no less than 0.2?
Reply: YES

Task item: Item A15G U61G with self-cleavage of 0.2 or above?
Reply: YES

Task item: Is the recorded value of self-cleavage equal to or greater than 0.2 for this variant? C18U G25C
Reply: NO

Task item: Does the reported self-cleavage for U26A A59G fall at or above the 0.2 mark?
Reply: YES

Task item: Decide: self-cleavage of C33G G48A >= 0.2?
Reply: YES

Task item: Is self-cleavage at least 0.2? Consider G31U U36G
Reply: YES

Task item: Can C35A U36G be said to have self-cleavage at or above 0.2?
Reply: YES

Task item: Record C24A U69A ; criterion: self-cleavage no lower than 0.2. Met?
Reply: YES

Task item: # bool: self-cleavage of A13C C66A >= 0.2
Reply: YES

Task item: Is the recorded value of self-cleavage equal to or greater than 0.2 for this variant? G25C G50U
Reply: YES

Task item: Is self-cleavage for C29G U55G at or above 0.2?
Reply: NO

Task item: Evaluate A8C U62A : self-cleavage at minimum 0.2?
Reply: YES

Task item: # bool: self-cleavage of C22A G28A >= 0.2
Reply: NO

Task item: Has C12A A15C a recorded self-cleavage greater than or equal to 0.2?
Reply: YES

Task item: Does self-cleavage meet or surpass 0.2 for A23G C33A ?
Reply: YES

Task item: For this variant, is measured self-cleavage 0.2 or higher? U46A G58U
Reply: YES

Task item: Given the entry A13U G17A , answer whether its self-cleavage meets or surpasses 0.2.
Reply: NO

Task item: Check the entry G48A U64C : does self-cleavage equal or exceed 0.2?
Reply: YES

Task item: Evaluate U53C G65A : self-cleavage at minimum 0.2?
Reply: YES

Task item: Please indicate if the recorded self-cleavage for A13C G17A meets or exceeds 0.2.
Reply: NO

Task item: Please indicate if the recorded self-cleavage for G3U G58A meets or exceeds 0.2.
Reply: NO

Task item: In plain terms: is recorded self-cleavage at least 0.2 for U20C G41A ?
Reply: YES

Task item: Test whether the variant C22A G47U records self-cleavage of 0.2 or higher.
Reply: NO

Task item: Please indicate if the recorded self-cleavage for A51G U53A meets or exceeds 0.2.
Reply: YES
